- Assay details: dissolution of the 11β-aminoester salts in aqueous acid (Table 5 and Examples 101, 225-229)
- Assay type: physicochemical
- Recorded conditions: method A: clear solution, 1 molar part acid; made up with water to WT. of solution 10 g, except Ex. 121 and 150: 12; 123: 12.3; 124: 7.5; 129: 10.3; 135 and 139: 8.95; 164: 10.35; 170: 10.4; 181: 10.04; 187: 9.5; 210: 10.2; 221: 15 g
Measure name: Dissolved aminoester (mg)
Reply numerically in mg, unit not repeated.

CCCCN(C)CC(=O)OC1CC2(C)C(CC(C)C2C(C)=O)C2CCC3CC(O)CCC3(C)C12 (stereo not drawn) | 100
CC(=O)[C@H]1CC[C@H]2[C@@H]3CC[C@H]4C[C@H](O)CC[C@]4(C)[C@H]3[C@@H](OC(=O)CCCN3CCC(C)CC3)C[C@]12C | 101

Incoming: Given `CC(=O)[C@H]1CC[C@H]2[C@@H]3CC[C@H]4C[C@H](O)CC[C@]4(C)[C@H]3[C@@H](OC(=O)CN(C)C)C[C@]12C` , state its recorded Dissolved aminoester.
Outgoing: 100

====

- Assay details: dissolution of the 11β-aminoester salts in aqueous acid (Table 5 and Examples 101, 225-229)
- Type: physicochemical
- Recorded conditions: method C: ethanol evaporated, residue in water, undissolved material weighed; WT. of solution Ex. 118: 10; 120: 10.4; 148: 9.54; 152: 5.6; 154: 9.1; 155: 8.77; 156: 9.06; 157: 9.5; 158: 9.38; 159: 9.17; 179: 9.65; 180: 11.7; 182: 4.9; 202: 12.05; 213: 12; 214: 11.5; 215: 11.1; 216: 11.6; 217: 12.1 g
Measure name: Dissolved aminoester (mg)
Reply numerically in mg, unit not repeated.

CCCN(CCC)CC(=O)O[C@H]1C[C@]2(C)[C@@H](C(C)=O)CC[C@H]2[C@@H]2CC[C@H]3C[C@H](O)CC[C@]3(C)[C@H]21 [Example 215] | 111
CC(=O)[C@H]1CC[C@H]2[C@@H]3CC[C@H]4C[C@H](O)CC[C@]4(C)[C@H]3[C@@H](OC(=O)CN3CCCC(C)C3)C[C@]12C (stereo partly drawn) | 95
C=CCN(CC=C)CC(=O)O[C@H]1C[C@]2(C)[C@@H](C(C)=O)CC[C@H]2[C@@H]2CC[C@H]3C[C@H](O)CC[C@]3(C)[C@H]21 | 38
CCCN(CCC)CC(=O)O[C@H]1C[C@]2(C)[C@@H](C(C)=O)CC[C@H]2[C@@H]2CC[C@H]3C[C@H](O)CC[C@]3(C)[C@H]21 [Example 216] | 116
CC(=O)[C@H]1CC[C@H]2[C@@H]3CC[C@H]4C[C@H](O)CC[C@]4(C)[C@H]3[C@@H](OC(=O)CN3CCCCCC3)C[C@]12C | 91.7

Consider the additional molecule presented here.
Incoming: Given `CCCN(CCC)CC(=O)O[C@H]1C[C@]2(C)[C@@H](C(C)=O)CC[C@H]2[C@@H]2CC[C@H]3C[C@H](O)[C@@H](OCC)C[C@]3(C)[C@H]21` , state its recorded Dissolved aminoester.
Outgoing: 87

====

- Assay details: pH of the salt solutions
- Type: physicochemical
- Recorded conditions: aqueous solution of the salt, Table 5
Returns Yes if the recorded pH is greater than or equal to 3, and No otherwise.

CCC(C)CN(CC)CC(=O)O[C@H]1C[C@]2(C)[C@@H](C(C)=O)CC[C@H]2[C@@H]2CC[C@H]3C[C@H](O)CC[C@]3(C)[C@H]21 (stereo partly drawn) | No
COC(=O)[C@H]1CC[C@H]2[C@@H]3CC[C@H]4C[C@H](O)CC[C@]4(C)[C@H]3[C@@H](OC(=O)CN3CCCCC3)C[C@]12C | No
CCCCCNCC(=O)O[C@H]1C[C@]2(C)[C@@H](C(C)=O)CC[C@H]2[C@@H]2CC[C@H]3C[C@H](O)CC[C@]3(C)[C@H]21 | Yes

// next entry
Incoming: Say whether CCCCN(C)CC(=O)OC1CC2(C)C(C(C)=O)CCC2C2CCC3CC(O)C(OC(C)=O)CC3(C)C12 (stereo not drawn) shows pH of 3 or more.
Outgoing: Yes
